Every entry's value here was drawn from patent US20070280945A1.

hIL6/hIL6R Binding Inhibition (%) reference
Molecular target: T1, hIL-6R-hFc (human, UniProt P08887 20-358)
T1 construct: also called dimeric hIL-6R; Dimer; not shown: human Fc (hFc)
T1 sequence: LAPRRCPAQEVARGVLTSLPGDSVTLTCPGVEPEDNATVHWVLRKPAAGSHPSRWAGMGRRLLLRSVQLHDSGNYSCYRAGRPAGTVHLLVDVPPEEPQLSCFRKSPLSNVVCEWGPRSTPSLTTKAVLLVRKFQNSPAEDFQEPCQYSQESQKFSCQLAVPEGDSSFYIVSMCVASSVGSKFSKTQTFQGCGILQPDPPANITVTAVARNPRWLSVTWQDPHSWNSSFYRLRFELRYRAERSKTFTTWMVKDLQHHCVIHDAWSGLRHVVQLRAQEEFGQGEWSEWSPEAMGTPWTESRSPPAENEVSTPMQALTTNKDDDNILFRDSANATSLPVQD
Assay: SPR (BIAcore): hIL-6R-hFc captured, antibody injected, then 50 nM hIL-6; percent reduction in hIL-6 binding
Quick reminder: number only, in %, skip the unit.

Examples from the recorded data:
| binder | unit-abbrev | hIL6/hIL6R Binding Inhibition (%) |
| --- | --- | --- |
| VQ8A9-6 (antibody, V domains shown, Human variable regions with mouse constant region (hybridoma-derived chimeric antibody); also called VQ8A9-6 mIgG1) VH: EVQLVESGGNLVQPGRSLRLSCAASGFIFDDYAMHWVRQAPGKGLEWVSGISWNSGSIGYADSVKGRFTISRDNAKNSLYLQMNSLRAEDTALYYCAKDGGSSWLPFVYYYGMDVWGQGTTVTVSS VL: EIVMTQSPATLSVSPGERATLSCRASQSISSNFAWYQQKPGQAPRLLIYGASTRATGIPARFSGSGSGTDFTLTISSLQSEDFAVYYCQQYSSWPPYTFGQGTKLEIK | % | 68 |
| VV6A9-5 (antibody, V domains shown, Human variable regions with mouse constant region; also called VV6A9-5 mIgG2a) VH: EVQLVESGGGLVQPGRSLRLSCAASGFTFDDYALHWVRQAPGKGLEWVSGVSWNGGRIGYADSVKGRFTISRDNAKNSLFLQMNSLRVEDTALYYCAKGRDAFDIWGQGTLVTVSS VL: DIQMTQSPSSVSASVGDRVTITCRASQGISSWLAWYQQKPGKAPKLLIYAASSLQSGVPSRFSGSGSGTDFTLTISSLQPEDFATYYCQHAYSFPYTFGQGTKLEIK | % | 100 |

Next:
hIL6/hIL6R Binding Inhibition (%) lookup needed for VV6C10-1 (antibody, V domains shown, Human variable regions with mouse constant region) VH: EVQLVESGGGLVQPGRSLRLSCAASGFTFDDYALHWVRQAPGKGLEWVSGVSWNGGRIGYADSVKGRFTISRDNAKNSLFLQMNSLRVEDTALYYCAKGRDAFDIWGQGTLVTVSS VL: EIVLTQSPATLSLSPGERATLSCRASQSVSSYLAWYQQKPGQAPRLLIYDASNRATGIPARFSGSGSGTDFTLTISSLEPEDFAFYYCQQRNNRPPFTFGPGTKVDVR , thanks.
61
